Listed below: cytotoxicity at 70.5 h values for each entry.
experiment description: Human HepG2 cell viability assay in 384 well format
Format: toxicity, cell-based
Set-up: dose 125 nL, time 70.5 hour; concentration not given beside the values
condition notes: HepG2 cells, read-out: Inhibition
Hi! Could you send only the number? It should be in %, unit omitted.

Name the reported cytotoxicity at 70.5 h value associated with the compound CN(Cc1ccc([S+](C)[O-])cc1)c1cncc(Cl)n1 (stereo unspecified)
-15.4

Name the reported cytotoxicity at 70.5 h value associated with the compound CCN(c1ccc(C(=O)NCCCN2CCCC2)cc1)S(=O)(=O)CC
-8.8

Name the reported cytotoxicity at 70.5 h value associated with the compound CCCC(=O)NCCc1nc2cc(-c3ccc(OC)cc3)ncn2n1
-8.47

Name the reported cytotoxicity at 70.5 h value associated with the compound CN1CCCC[C@@H]2[C@H]1[C@@H](c1ccccc1)CCN2C(=O)c1ccccc1
1.32

Name the reported cytotoxicity at 70.5 h value associated with the compound COC1CCN(C(=O)NCC(N)=O)CC(=O)N(C)c2ccccc21 (stereo unspecified)
-5.28

Name the reported cytotoxicity at 70.5 h value associated with the compound COc1cccc(CNC(=O)N2CCN(Cc3cc(C)on3)CC2)c1
-20.5

Name the reported cytotoxicity at 70.5 h value associated with the compound Nc1nc(N)c2c(n1)OC1(CCN(C(=O)CC3CCNCC3)CC1)C2
8.24

Name the reported cytotoxicity at 70.5 h value associated with the compound Cc1cnn(C2CN(Cc3nnc(-c4ccccc4Cl)o3)C2)c1
5.37

Name the reported cytotoxicity at 70.5 h value associated with the compound CC(C)NC(=O)[C@@H]1CN(C(=O)C2CC2)C[C@]12Cc1ccccc1C(=O)N2
-3.78

Name the reported cytotoxicity at 70.5 h value associated with the compound OC(CN1CCOCC1)c1cc(Cl)ccc1Cl (stereo unspecified)
9.36

Name the reported cytotoxicity at 70.5 h value associated with the compound CN(C)C(=O)CO[C@H]1CN(Cc2ccccc2)[C@@H]2CCCO[C@H]12
34.3

----------
experiment description: Human HepG2 cell viability assay in 384 well format
Type: toxicity, cell-based
Design: dose 125 nL, time 70.5 hour; concentration not given beside the values
condition notes: HepG2 cells, read-out: Inhibition
Listed below: cytotoxicity at 70.5 h values for each entry.
Hi! Could you send only the number? It should be in %, unit omitted.

[[record]]
compound = "O=C(O)C1(n2ccc(-c3ccco3)n2)CCN(Cc2cccnc2)CC1"
metric_name = "cytotoxicity at 70.5 h"
scale_unit = "%"
readout_value = -4.45


Name the reported cytotoxicity at 70.5 h value associated with the compound COc1ccccc1S(=O)(=O)CCOC(C)C
-3.27

Name the reported cytotoxicity at 70.5 h value associated with the compound CCc1ncc2c(n1)CN(c1nc(C)ccc1C(=O)O)C2
-10.8

----------
Listed below: cytotoxicity at 70.5 h values for each entry.
experiment description: Human HepG2 cell viability assay in 384 well format
Type: toxicity, cell-based
Set-up: dose 125 nL, time 70.5 hour; concentration not given beside the values
condition notes: HepG2 cells, read-out: Inhibition
Hi! Could you send only the number? It should be in %, unit omitted.

Previously resolved entries follow.
[[record]]
compound = "Cc1cc(C(=O)Nc2ccc3c(c2)N(C)CCN(C)C3)on1"
scale_unit = "%"
readout_value = -5.18

[[record]]
compound = "CC[C@H]1CN2CC[C@H]1C[C@@H]2CNC(=O)Nc1ccccc1"
scale_unit = "%"
readout_value = -2.2

[[record]]
compound = "CCOC(=O)c1cnn(-c2cc(Oc3cccc(C)c3)ncn2)c1N"
scale_unit = "%"
readout_value = -0.773

[[record]]
compound = "CCCc1nc(N2CCCCC2)c2c(n1)c(C)nn2CC"
scale_unit = "%"
readout_value = 15.4

[[record]]
compound = "O=C(NCC1(O)CCC1)c1c(O)cc(Cl)cc1Cl"
scale_unit = "%"
readout_value = -1.39


Name the reported cytotoxicity at 70.5 h value associated with the compound Cc1cnc2c(S(=O)(=O)NCC3CCS(=O)(=O)C3)cccc2c1 (stereo unspecified)
51.3
